TARGET_ENTITY: Src (Homo sapiens, UniProt P12931)
Sequence (P12931 whole entry): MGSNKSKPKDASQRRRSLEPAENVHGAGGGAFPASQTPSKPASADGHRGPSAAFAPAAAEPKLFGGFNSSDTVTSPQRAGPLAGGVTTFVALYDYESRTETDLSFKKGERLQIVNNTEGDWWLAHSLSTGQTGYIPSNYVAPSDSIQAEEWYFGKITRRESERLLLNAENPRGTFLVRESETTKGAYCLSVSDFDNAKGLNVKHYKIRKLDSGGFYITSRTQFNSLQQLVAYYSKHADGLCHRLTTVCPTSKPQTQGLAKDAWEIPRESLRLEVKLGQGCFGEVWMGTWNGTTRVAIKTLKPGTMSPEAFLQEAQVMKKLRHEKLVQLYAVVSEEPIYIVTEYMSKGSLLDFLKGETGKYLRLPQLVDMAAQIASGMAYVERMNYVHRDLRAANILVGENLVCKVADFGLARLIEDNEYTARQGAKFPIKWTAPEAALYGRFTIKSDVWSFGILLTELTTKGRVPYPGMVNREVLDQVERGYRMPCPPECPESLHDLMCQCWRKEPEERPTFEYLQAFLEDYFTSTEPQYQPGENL
ASSAY_PROTOCOL: Src kinase assay, IMAP fluorescence polarization
Assay type: biochemical
PROTOCOL_CONDITIONS: 50 or 100 μM ATP; average; read-out: Src-AVERAGE Ki
hey, just use Satisfied if measured Ki is less than 70 nM, otherwise Not satisfied

SMILES_NOTATION	TARGET_ENTITY	CAT
Cc1cccc(Cl)c1N1Cc2cnc(N)nc2N(C2CN(C)C2)C1=O	Src (Homo sapiens, UniProt P12931)	Not satisfied
CN[C@H]1CC[C@@H](N2C(=O)N(c3c(C)cccc3F)Cc3cnc(N)nc32)CC1	Src (Homo sapiens, UniProt P12931)	Not satisfied
Cc1cccc(F)c1N1Cc2cnc(N)nc2N([C@@H]2CCCNCC2)C1=O	Src (Homo sapiens, UniProt P12931)	Satisfied
Cc1cccc(F)c1N1Cc2cnc(N)nc2N([C@H]2CCCNC2)C1=O	Src (Homo sapiens, UniProt P12931)	Not satisfied
Cc1cccc(F)c1N1Cc2cnc(N)nc2N([C@H]2CCCN(C)C2)C1=O	Src (Homo sapiens, UniProt P12931)	Not satisfied
Cc1cccc(F)c1N1Cc2cnc(N)nc2N([C@H]2CC[C@H](N)CC2)C1=O	Src (Homo sapiens, UniProt P12931)	Satisfied

---

TARGET_ENTITY: SIK3 (Homo sapiens)
Sequence (Q9Y2K2 whole entry): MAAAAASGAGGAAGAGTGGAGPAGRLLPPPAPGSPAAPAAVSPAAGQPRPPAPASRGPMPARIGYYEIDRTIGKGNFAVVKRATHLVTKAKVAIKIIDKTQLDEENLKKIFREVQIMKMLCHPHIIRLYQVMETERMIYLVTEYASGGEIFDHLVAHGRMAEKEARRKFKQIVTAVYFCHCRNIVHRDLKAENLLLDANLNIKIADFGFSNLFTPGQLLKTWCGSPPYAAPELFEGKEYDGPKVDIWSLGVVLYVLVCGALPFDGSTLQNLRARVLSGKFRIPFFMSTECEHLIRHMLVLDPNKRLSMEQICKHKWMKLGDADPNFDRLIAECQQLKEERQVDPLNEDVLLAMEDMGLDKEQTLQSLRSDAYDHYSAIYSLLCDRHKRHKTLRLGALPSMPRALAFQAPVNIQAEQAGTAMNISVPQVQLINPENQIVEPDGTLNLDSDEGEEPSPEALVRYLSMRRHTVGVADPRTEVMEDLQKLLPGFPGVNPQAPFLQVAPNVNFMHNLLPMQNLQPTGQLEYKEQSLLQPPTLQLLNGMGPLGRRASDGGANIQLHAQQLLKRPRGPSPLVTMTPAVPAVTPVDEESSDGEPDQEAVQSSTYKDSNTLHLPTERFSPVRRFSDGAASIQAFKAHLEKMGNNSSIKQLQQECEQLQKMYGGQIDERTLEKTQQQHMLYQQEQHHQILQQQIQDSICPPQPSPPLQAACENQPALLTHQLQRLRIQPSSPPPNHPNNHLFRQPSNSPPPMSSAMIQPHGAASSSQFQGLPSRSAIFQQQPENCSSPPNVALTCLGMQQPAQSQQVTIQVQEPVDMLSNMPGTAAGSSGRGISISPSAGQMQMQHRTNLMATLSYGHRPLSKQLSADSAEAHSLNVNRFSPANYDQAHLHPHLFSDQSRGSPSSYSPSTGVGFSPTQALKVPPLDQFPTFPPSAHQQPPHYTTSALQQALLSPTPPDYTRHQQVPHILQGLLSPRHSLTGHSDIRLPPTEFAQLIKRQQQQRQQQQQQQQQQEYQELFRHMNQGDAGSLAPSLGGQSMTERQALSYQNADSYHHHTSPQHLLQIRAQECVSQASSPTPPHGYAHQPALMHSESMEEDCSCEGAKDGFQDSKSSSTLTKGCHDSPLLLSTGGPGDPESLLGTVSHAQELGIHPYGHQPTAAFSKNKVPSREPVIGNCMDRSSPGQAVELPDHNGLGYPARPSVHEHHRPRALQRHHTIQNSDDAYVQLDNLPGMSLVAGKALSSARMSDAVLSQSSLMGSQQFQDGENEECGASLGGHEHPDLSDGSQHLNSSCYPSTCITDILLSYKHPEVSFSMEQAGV
ASSAY_PROTOCOL: SIK3 kinase assay, IMAP fluorescence polarization
Format: biochemical
pKi: −log10 of the molar value.
Reported pKi by item:

SMILES_NOTATION	pKi
Cc1cccc(Cl)c1N1Cc2cnc(N)cc2N(C2CCN(C)CC2)C1=O	8.02
Cc1cccc(F)c1N1Cc2cncnc2N(C2CCN(C)CC2)C1=O	6.05
Cc1cccc(Cl)c1N1Cc2cncnc2N(C2CCNCC2)C1=O	5.85
Cc1cccc(Cl)c1N1Cc2cncnc2N(C2CCN(C)CC2)C1=O	5.65
Cc1cccc(F)c1N1Cc2cnc(N)cc2N(C2CCNCC2)C1=O	8.75

---

Below, each of the compounds is paired with its reported pKi value.
TARGET_ENTITY: SIK2 (Homo sapiens, UniProt Q9H0K1)
Sequence (Q9H0K1 whole entry): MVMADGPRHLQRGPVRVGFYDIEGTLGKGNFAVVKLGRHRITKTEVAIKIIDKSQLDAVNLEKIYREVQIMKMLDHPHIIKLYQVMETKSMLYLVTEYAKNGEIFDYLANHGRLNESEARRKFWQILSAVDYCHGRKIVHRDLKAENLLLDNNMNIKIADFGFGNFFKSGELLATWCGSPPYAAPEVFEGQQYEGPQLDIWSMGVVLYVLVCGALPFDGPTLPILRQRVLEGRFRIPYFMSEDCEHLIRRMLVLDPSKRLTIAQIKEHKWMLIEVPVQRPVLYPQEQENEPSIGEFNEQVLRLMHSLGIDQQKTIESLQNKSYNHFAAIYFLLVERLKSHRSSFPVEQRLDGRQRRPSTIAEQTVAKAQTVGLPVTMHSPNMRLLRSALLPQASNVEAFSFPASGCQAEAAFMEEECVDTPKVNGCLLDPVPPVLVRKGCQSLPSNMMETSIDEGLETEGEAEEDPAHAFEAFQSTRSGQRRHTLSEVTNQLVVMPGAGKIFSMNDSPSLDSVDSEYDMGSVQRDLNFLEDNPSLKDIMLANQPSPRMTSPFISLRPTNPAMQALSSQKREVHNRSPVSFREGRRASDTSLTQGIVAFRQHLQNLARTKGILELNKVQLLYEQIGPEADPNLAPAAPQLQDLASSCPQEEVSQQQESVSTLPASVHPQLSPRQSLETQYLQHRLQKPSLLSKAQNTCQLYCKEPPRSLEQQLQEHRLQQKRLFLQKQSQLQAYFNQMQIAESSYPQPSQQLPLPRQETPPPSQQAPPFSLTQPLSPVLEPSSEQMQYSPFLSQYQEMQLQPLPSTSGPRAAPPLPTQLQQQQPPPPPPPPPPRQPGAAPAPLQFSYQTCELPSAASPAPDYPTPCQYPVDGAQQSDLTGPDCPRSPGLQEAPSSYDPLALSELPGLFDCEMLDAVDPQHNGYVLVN
ASSAY_PROTOCOL: SIK2 kinase assay, IMAP fluorescence polarization
Type: biochemical
PROTOCOL_CONDITIONS: 50 or 100 μM ATP; average; read-out: SIK2-AVERAGE Ki
pKi: −log10 of the molar value.

COMPOUND	pKi
Cc1cccc(F)c1N1Cc2cnc(N)cc2N([C@H]2CC[C@@H](N(C)C)CC2)C1=O	9.63
Cc1cccc(F)c1N1Cc2cnc(N)nc2N(C2CCCC(N)C2)C1=O (centres unmarked)	9.68
Cc1cccc(F)c1N1Cc2cnc(N)cc2N([C@H]2CCCNC2)C1=O	9.32
CNC1CCCC(N2C(=O)N(c3c(C)cccc3F)Cc3cnc(N)cc32)C1 (centres unmarked)	9.40
CN[C@H]1CC[C@@H](N2C(=O)N(c3c(C)cccc3F)Cc3cnc(N)nc32)CC1	9.33

---

Each entry below lists one item and its recorded Ki value.
TARGET_ENTITY: SIK2 (Homo sapiens)
ASSAY_PROTOCOL: SIK2 kinase assay, IMAP fluorescence polarization
Format: biochemical
PROTOCOL_CONDITIONS: 50 or 100 μM ATP; average; read-out: SIK2-AVERAGE Ki

SMILES_NOTATION	Ki (nM)
CNc1cc2c(cn1)CN(c1c(C)cccc1F)C(=O)N2[C@H]1CC[C@@H](N(C)C)CC1	1.25
Cc1cccc(F)c1N1Cc2cnc(N)nc2N([C@@H]2CCCNCC2)C1=O	0.197
Cc1cccc(F)c1N1Cc2cnccc2N([C@H]2CCCCNC2)C1=O	13.7
Cc1cccc(F)c1N1Cc2cnc(N)nc2N([C@@H]2CCN(C)C2)C1=O	4.79
Cc1cccc(Cl)c1N1Cc2cnc(N)cc2N(C2CN(C)C2)C1=O	17.9
Cc1cccc(Cl)c1N1Cc2cnc(N)cc2N(C2CNC2)C1=O	4.49
Cc1cccc(F)c1N1Cc2cnc(N)nc2N([C@H]2CC[C@H](N)CC2)C1=O	0.222
Cc1cccc(F)c1N1Cc2cnc(N)cc2N(C2CN(C)C2)C1=O	13.6
Cc1cccc(F)c1N1Cc2cnc(N)cc2N([C@@H]2CCCNC2)C1=O	0.348

Origin of the recorded values: patent US12509457B2
